Test system: SK-LU-1
test: relative viability (nuclei count vs DMSO), 5 days (fraction); higher = more cells survive
condition notes: first compound 0.03162 µM
measurement type: relative viability

INSERT INTO results (compound, result_number) VALUES
  ('CC(C)Oc1cc(Nc2nc(N[C@@H](C)c3ccc(F)cn3)ncc2Cl)n[nH]1 [AZ23] + COc1cccc2cc(-c3nc([C@H]4CC[C@H](C(=O)O)CC4)n4ncnc(N)c34)[nH]c12 [OSI-027] (partner 0.5 µM)', 0.403),
  ('CC(C)Oc1cc(Nc2nc(N[C@@H](C)c3ccc(F)cn3)ncc2Cl)n[nH]1 [AZ23] + CS(=O)(=O)CCNCc1ccc(-c2ccc3ncnc(Nc4ccc(OCc5cccc(F)c5)c(Cl)c4)c3c2)o1 [Lapatinib] (partner 2 µM)', 1.06),
  ('CC(C)Oc1cc(Nc2nc(N[C@@H](C)c3ccc(F)cn3)ncc2Cl)n[nH]1 [AZ23] + Nc1nc2[nH]cc(CCc3ccc(C(=O)N[C@@H](CCC(=O)O)C(=O)O)cc3)c2c(=O)[nH]1 [Pemetrexed] (partner 0.2 µM)', 1.13),
  ('CC(C)Oc1cc(Nc2nc(N[C@@H](C)c3ccc(F)cn3)ncc2Cl)n[nH]1 [AZ23] + Cc1nc(NC(=O)N2CCC[C@H]2C(N)=O)sc1-c1ccnc(C(C)(C)C(F)(F)F)c1 [Alpelisib] (partner 2 µM)', 1.09);

----------
Measured relative viability of individual entries
Test system: CAL-12T
test: relative viability (nuclei count vs DMSO), 5 days (fraction); higher = more cells survive
condition notes: first compound 0.03162 µM
measurement type: relative viability

INSERT INTO assay_data (compound, measurement_type, result_number) VALUES
  ('CC(C)Oc1cc(Nc2nc(N[C@@H](C)c3ccc(F)cn3)ncc2Cl)n[nH]1 [AZ23] + CS(=O)(=O)N1CCN(Cc2cc3nc(-c4cccc5[nH]ncc45)nc(N4CCOCC4)c3s2)CC1 [Pictilisib] (partner 1 µM)', 'relative viability', 0.418),
  ('CC(C)Oc1cc(Nc2nc(N[C@@H](C)c3ccc(F)cn3)ncc2Cl)n[nH]1 [AZ23] + CCNC(=O)c1noc(-c2cc(C(C)C)c(O)cc2O)c1-c1ccc(CN2CCOCC2)cc1 [Luminespib] (partner 0.01 µM)', 'relative viability', 0.364),
  ('CC(C)Oc1cc(Nc2nc(N[C@@H](C)c3ccc(F)cn3)ncc2Cl)n[nH]1 [AZ23] + CS(=O)(=O)CCNCc1ccc(-c2ccc3ncnc(Nc4ccc(OCc5cccc(F)c5)c(Cl)c4)c3c2)o1 [Lapatinib] (partner 2 µM)', 'relative viability', 0.701),
  ('CC(C)Oc1cc(Nc2nc(N[C@@H](C)c3ccc(F)cn3)ncc2Cl)n[nH]1 [AZ23] + C[C@@H](Oc1cc(-c2cnn(C3CCNCC3)c2)cnc1N)c1c(Cl)ccc(F)c1Cl [Crizotinib] (partner 1 µM)', 'relative viability', 0.759),
  ('CC(C)Oc1cc(Nc2nc(N[C@@H](C)c3ccc(F)cn3)ncc2Cl)n[nH]1 [AZ23] + CC(C)C[C@H](NC(=O)[C@H](Cc1ccccc1)NC(=O)c1cnccn1)B(O)O [Bortezomib] (partner 0.002 µM)', 'relative viability', 1.01),
  ('CC(C)Oc1cc(Nc2nc(N[C@@H](C)c3ccc(F)cn3)ncc2Cl)n[nH]1 [AZ23] + CC1(C)CCC(c2ccc(Cl)cc2)=C(CN2CCN(c3ccc(C(=O)NS(=O)(=O)c4ccc(N[C@H](CCN5CCOCC5)CSc5ccccc5)c(S(=O)(=O)C(F)(F)F)c4)cc3)CC2)C1 [Navitoclax] (partner 0.5 µM)', 'relative viability', 1.28);

----------
Below is a list of entries, each paired with its recorded relative viability value.
System: LXF-289
test: relative viability (nuclei count vs DMSO), 5 days (fraction); higher = more cells survive
condition notes: first compound 0.4 µM
measurement type: relative viability

INSERT INTO measurements (compound, tested_target, result_number) VALUES
  ('C[C@@H]1CN(CC(=O)Nc2ccc3c(c2)Cc2cccc(-c4cc(=O)cc(N5CCOCC5)o4)c2S3)C[C@H](C)O1 + CC(C)C[C@H](NC(=O)[C@H](Cc1ccccc1)NC(=O)c1cnccn1)B(O)O [Bortezomib] (partner 0.002 µM)', 'LXF-289', 1.02),
  ('COc1cc(N2CCC(C(N)=O)CC2)ccc1Nc1nc(N)c(Cl)c(Nc2ccccc2S(=O)(=O)C(C)C)n1 [HG-5-88-01] + CC(C)C[C@H](NC(=O)[C@H](Cc1ccccc1)NC(=O)c1cnccn1)B(O)O [Bortezomib] (partner 0.002 µM)', 'LXF-289', 0.909);

----------
System: LK-2
test: relative viability (nuclei count vs DMSO), 5 days (fraction); higher = more cells survive
condition notes: first compound 8 µM
measurement type: relative viability

INSERT INTO measurements (molecule, result_number) VALUES
  ('CCCCCCCCCCCC1=C(O)C(=O)C=C(O)C1=O [Embelin] + N=C(N)NC(=N)NCCc1ccccc1 [Phenformin] (partner 250 µM)', 0.26),
  ('CCCCCCCCCCCC1=C(O)C(=O)C=C(O)C1=O [Embelin] + CC1(C)CCC(c2ccc(Cl)cc2)=C(CN2CCN(c3ccc(C(=O)NS(=O)(=O)c4ccc(N[C@H](CCN5CCOCC5)CSc5ccccc5)c(S(=O)(=O)C(F)(F)F)c4)cc3)CC2)C1 [Navitoclax] (partner 0.5 µM)', 0.809),
  ('CCCCCCCCCCCC1=C(O)C(=O)C=C(O)C1=O [Embelin] + CS(=O)(=O)CCNCc1ccc(-c2ccc3ncnc(Nc4ccc(OCc5cccc(F)c5)c(Cl)c4)c3c2)o1 [Lapatinib] (partner 2 µM)', 0.825);

----------
Measured relative viability, listed per entry for reference.
Test system: NCI-H1395
test: relative viability (nuclei count vs DMSO), 5 days (fraction); higher = more cells survive
condition notes: first compound 0.3162 µM
measurement type: relative viability

INSERT INTO measurements (compound, result_number) VALUES
  ('CC(C)Oc1cc(Nc2nc(N[C@@H](C)c3ccc(F)cn3)ncc2Cl)n[nH]1 [AZ23] + CC1(C)CCC(c2ccc(Cl)cc2)=C(CN2CCN(c3ccc(C(=O)NS(=O)(=O)c4ccc(N[C@H](CCN5CCOCC5)CSc5ccccc5)c(S(=O)(=O)C(F)(F)F)c4)cc3)CC2)C1 [Navitoclax] (partner 0.5 µM)', 1.21),
  ('CC(C)Oc1cc(Nc2nc(N[C@@H](C)c3ccc(F)cn3)ncc2Cl)n[nH]1 [AZ23] + CS(=O)(=O)CCNCc1ccc(-c2ccc3ncnc(Nc4ccc(OCc5cccc(F)c5)c(Cl)c4)c3c2)o1 [Lapatinib] (partner 2 µM)', 1.03),
  ('CC(C)Oc1cc(Nc2nc(N[C@@H](C)c3ccc(F)cn3)ncc2Cl)n[nH]1 [AZ23] + CS(=O)(=O)N1CCN(Cc2cc3nc(-c4cccc5[nH]ncc45)nc(N4CCOCC4)c3s2)CC1 [Pictilisib] (partner 1 µM)', 0.577),
  ('CC(C)Oc1cc(Nc2nc(N[C@@H](C)c3ccc(F)cn3)ncc2Cl)n[nH]1 [AZ23] + Nc1ncn([C@H]2C[C@H](O)[C@@H](CO)O2)c(=O)n1 [Decitabine] (partner 2 µM)', 0.704),
  ('CC(C)Oc1cc(Nc2nc(N[C@@H](C)c3ccc(F)cn3)ncc2Cl)n[nH]1 [AZ23] + Cc1nc(NC(=O)N2CCC[C@H]2C(N)=O)sc1-c1ccnc(C(C)(C)C(F)(F)F)c1 [Alpelisib] (partner 2 µM)', 1.08),
  ('CC(C)Oc1cc(Nc2nc(N[C@@H](C)c3ccc(F)cn3)ncc2Cl)n[nH]1 [AZ23] + Cc1nc(Nc2ncc(C(=O)Nc3c(C)cccc3Cl)s2)cc(N2CCN(CCO)CC2)n1 [Dasatinib] (partner 0.075 µM)', 0.359);

----------
Tested on: NCI-H1355
test: relative viability (nuclei count vs DMSO), 5 days (fraction); higher = more cells survive
condition notes: first compound 0.4 µM
measurement type: relative viability

INSERT INTO assay_data (molecule, tested_target, result_number) VALUES
  ('COc1cc(N2CCC(C(N)=O)CC2)ccc1Nc1nc(N)c(Cl)c(Nc2ccccc2S(=O)(=O)C(C)C)n1 [HG-5-88-01] + COc1cc2c(Oc3ccc(NC(=O)C4(C(=O)Nc5ccc(F)cc5)CC4)cc3F)ccnc2cc1OCCCN1CCOCC1 [Foretinib] (partner 0.25 µM)', 'NCI-H1355', 0.929),
  ('COc1cc(N2CCC(C(N)=O)CC2)ccc1Nc1nc(N)c(Cl)c(Nc2ccccc2S(=O)(=O)C(C)C)n1 [HG-5-88-01] + Cc1nc(Nc2ncc(C(=O)Nc3c(C)cccc3Cl)s2)cc(N2CCN(CCO)CC2)n1 [Dasatinib] (partner 0.075 µM)', 'NCI-H1355', 0.597),
  ('COc1cc(N2CCC(C(N)=O)CC2)ccc1Nc1nc(N)c(Cl)c(Nc2ccccc2S(=O)(=O)C(C)C)n1 [HG-5-88-01] + O=C(c1cc(Cc2n[nH]c(=O)c3ccccc23)ccc1F)N1CCN(C(=O)C2CC2)CC1 [Olaparib] (partner 8 µM)', 'NCI-H1355', 0.74),
  ('Clc1ccc(Nc2nnc(Cc3ccncc3)c3ccccc23)cc1 [Vatalanib] + COc1cc2c(Oc3ccc(NC(=O)C4(C(=O)Nc5ccc(F)cc5)CC4)cc3F)ccnc2cc1OCCCN1CCOCC1 [Foretinib] (partner 0.25 µM)', 'NCI-H1355', 1.02),
  ('C[C@@H]1CN(CC(=O)Nc2ccc3c(c2)Cc2cccc(-c4cc(=O)cc(N5CCOCC5)o4)c2S3)C[C@H](C)O1 + CS(=O)(=O)N1CCN(Cc2cc3nc(-c4cccc5[nH]ncc45)nc(N4CCOCC4)c3s2)CC1 [Pictilisib] (partner 1 µM)', 'NCI-H1355', 0.418),
  ('Clc1ccc(Nc2nnc(Cc3ccncc3)c3ccccc23)cc1 [Vatalanib] + CC1(C)CCC(c2ccc(Cl)cc2)=C(CN2CCN(c3ccc(C(=O)NS(=O)(=O)c4ccc(N[C@H](CCN5CCOCC5)CSc5ccccc5)c(S(=O)(=O)C(F)(F)F)c4)cc3)CC2)C1 [Navitoclax] (partner 0.5 µM)', 'NCI-H1355', 1.01),
  ('Clc1ccc(Nc2nnc(Cc3ccncc3)c3ccccc23)cc1 [Vatalanib] + CC(C)C[C@H](NC(=O)[C@H](Cc1ccccc1)NC(=O)c1cnccn1)B(O)O [Bortezomib] (partner 0.002 µM)', 'NCI-H1355', 1.21),
  ('Clc1ccc(Nc2nnc(Cc3ccncc3)c3ccccc23)cc1 [Vatalanib] + O=C(CCCCCCC(=O)Nc1ccccc1)NO [Vorinostat] (partner 1 µM)', 'NCI-H1355', 0.727);
